# Test system: NHDF cells (human dermal fibroblasts)
# ASSAY_REMARKS: cell growth, normal cells
# Format: cell-based
# RECORDED_CONDITIONS: 72 hours of treatment
pIC50: −log10 of the molar value.
REPORTED_METRIC: pIC50

>>> value_measured("O=[N+]([O-])c1cc(-c2cn(CCCN3CCCCCCCCCCCC3)cc2-c2cc(O)c(O)c([N+](=O)[O-])c2)cc(O)c1O")
5.30
